Test system: plasma high density lipoprotein cholesterol (HDLC)
Assay: increasing rate of plasma high density lipoprotein cholesterol (HDLC) concentration
Assay type: in vivo, male Wistar rats
Settings: 300 mg/kg/day oral for 2 days; rat; vs control
measuredMetric: Increasing rate (%) of high density lipids concentration in the serum (plasma HDLC)

itemSmiles | readingUnit | observedMeasurement
CCOP(=O)(Cc1ccc(C(=O)Nc2ccc(C#N)cc2Cl)cc1)OCC | % | 187
CCOP(=O)(Cc1ccc(C(=O)Nc2ccc(Br)cc2C#N)cc1)OCC | % | 193
CCOP(=O)(Cc1ccc(C(=O)Nc2ccc(Cl)cc2C#N)cc1)OCC | % | 196
CCOP(=O)(Cc1ccc(C(=O)Nc2ccc(I)cc2C#N)cc1)OCC | % | 187
CCOP(=O)(Cc1ccc(C(=O)Nc2ccc(Br)c(C#N)c2)cc1)OCC | % | 111
CCOP(=O)(Cc1ccc(C(=O)Nc2ccc(C#N)cc2I)cc1)OCC | % | 184
CCOP(=O)(Cc1ccc(C(=O)Nc2ccc(C#N)cc2Br)cc1)OCC | % | 222
